- METHOD_NOTES: in vitro microsome metabolic stability, human (HLM)
- Type: in vitro ADME
- CONDITION_INFO: pooled human liver microsomes, pH 7.4; human liver microsomes 0.5 mg/mL, 1 μM compound, NADPH, 37° C.; read-out: HLM (T1/2, min)
- Experimental: Human microsome stability (HLM), mouse microsome stability (MLM), hERG IC50, Caco-2 permeability, CYP inhibition, and pharmacokinetic (PK) properties were determined on selected compounds of the disclosure. Pooled liver microsomes (Human and CD-1 mouse) were purchased from Corning or XenoTech LLC and stored at −80° C. freezer before use. […]
QUANTITY_KIND: half-life at 1 μM (min)
One number for each entry, in min.

Just so you know, measured half-life at 1 μM for COCC[S@@+]([O-])c1sc2nc(-c3cnc4nn(C)nc4c3)cc(C(C)(C)C)c2c1N came out at 100
